# ASSAY_SYSTEM: T1, CD22 (UniProtKB-P20273) on CD22(+) cells (human, UniProt P20273 20-847)
# T1 construct: Endogenous CD22 on the NALM6 and Raji cell lines; also called SIGLEC-2; BL-CAM
# T1 sequence: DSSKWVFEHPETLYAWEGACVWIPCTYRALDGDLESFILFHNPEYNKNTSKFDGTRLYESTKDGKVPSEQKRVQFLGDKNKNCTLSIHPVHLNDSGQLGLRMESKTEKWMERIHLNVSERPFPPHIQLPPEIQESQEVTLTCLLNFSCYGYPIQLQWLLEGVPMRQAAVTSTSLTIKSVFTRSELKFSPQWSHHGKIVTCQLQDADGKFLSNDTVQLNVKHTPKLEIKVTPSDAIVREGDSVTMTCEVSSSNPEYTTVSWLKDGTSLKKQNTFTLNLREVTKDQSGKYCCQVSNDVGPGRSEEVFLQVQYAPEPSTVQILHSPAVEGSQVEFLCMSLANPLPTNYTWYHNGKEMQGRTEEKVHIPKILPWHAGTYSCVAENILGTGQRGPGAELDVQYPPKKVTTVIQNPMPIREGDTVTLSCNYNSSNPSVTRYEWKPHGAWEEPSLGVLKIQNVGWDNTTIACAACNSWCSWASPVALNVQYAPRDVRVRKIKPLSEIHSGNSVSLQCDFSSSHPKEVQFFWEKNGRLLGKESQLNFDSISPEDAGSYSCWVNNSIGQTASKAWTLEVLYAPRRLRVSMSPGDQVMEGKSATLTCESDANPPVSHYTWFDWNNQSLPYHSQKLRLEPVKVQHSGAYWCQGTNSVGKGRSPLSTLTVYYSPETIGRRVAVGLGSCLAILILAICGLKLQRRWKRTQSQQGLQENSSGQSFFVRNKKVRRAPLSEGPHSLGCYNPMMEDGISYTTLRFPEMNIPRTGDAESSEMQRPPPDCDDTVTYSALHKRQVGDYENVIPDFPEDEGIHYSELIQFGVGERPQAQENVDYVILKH
# EXPERIMENTAL_PROTOCOL: flow cytometry on CD22(+) NALM6 cells
Measured MFI (FACS NALM6) by item

BINDER	MFI (FACS NALM6)
humanized LL2 L1 + H8 (antibody, V domains shown, Human IgG1 frameworks) VH: QVQLVESGAEVKKPGASVKVSCKASGYTFTSYWLHWIRQAPGQRLEWMGYINPRNDYTEYNQNFKDRVTITRDTSASTAYMELSSLRSEDTAVYYCARRDITTFYWGQGTTLTVSS VL: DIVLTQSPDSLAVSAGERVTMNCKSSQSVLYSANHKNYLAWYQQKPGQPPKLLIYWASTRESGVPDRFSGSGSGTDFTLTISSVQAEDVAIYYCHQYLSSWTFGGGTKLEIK	23.3
humanized LL2 L2 + H9 (antibody, V domains shown, Human IgG1 frameworks) VH: QVQLVQSGAEVKKPGASVKVSCKASGYTFTSYWLHWVRQAPGQRLEWIGYINPRNDYTEYNQNFKDRVTITADTSASTAYMELSSLRSEDTAVYYCARRDITTFYWGQGTTLTVSS VL: DIVLTQSPDSLAVSLGERVTMNCKSSQSVLYSANHKNYLAWYQQKPGQSPKLLIYWASTRESGVPDRFSGSGSGTDFTLTISSVQAEDVAIYYCHQYLSSWTFGGGTKLEIK	34.3
humanized LL2 L1 + H3 (antibody, V domains shown, Human IgG1 frameworks; also called H3L1) VH: QVQLQQSGAEVKKPGASVKVSCKASGYTFTSYWLHWIRQAPGQRLEWIGYINPRNDYTEYSQKFQGRATLTADTSASTAYMELSSLRSEDTAVYYCARRDITTFYWGQGTTLTVSS VL: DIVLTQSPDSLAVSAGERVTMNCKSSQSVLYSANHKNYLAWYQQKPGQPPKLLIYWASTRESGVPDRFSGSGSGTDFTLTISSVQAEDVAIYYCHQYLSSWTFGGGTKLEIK	31.9
humanized LL2 L2 + H10 (antibody, V domains shown, Human IgG1 frameworks) VH: QVQLVQSGAEVKKPGASVKVSCKASGYTFTSYWLHWVRQAPGQRLEWMGYINPRNDYTEYNQNFKDRVTLTADKSASTAYMELSSLRSEDTAVYYCARRDITTFYWGQGTTLTVSS VL: DIVLTQSPDSLAVSLGERVTMNCKSSQSVLYSANHKNYLAWYQQKPGQSPKLLIYWASTRESGVPDRFSGSGSGTDFTLTISSVQAEDVAIYYCHQYLSSWTFGGGTKLEIK	37
humanized LL2 L1 + H7 (antibody, V domains shown, Human IgG1 frameworks) VH: QVQLVESGAEVKKPGASVKVSCKASGYTFTSYWLHWVRQAPGQRLEWMGYINPRNDYTEYNQNFKDRATITRDTSASTAYMELSSLRSEDTAVYYCARRDITTFYWGQGTTLTVSS VL: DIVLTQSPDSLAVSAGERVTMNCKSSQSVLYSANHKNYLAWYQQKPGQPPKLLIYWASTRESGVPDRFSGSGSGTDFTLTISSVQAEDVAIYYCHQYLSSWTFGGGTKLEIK	21.8
humanized LL2 L1 + H6 (antibody, V domains shown, Human IgG1 frameworks; also called H6L1) VH: QVQLQQSGAEVKKPGASVKVSCKASGYTFTSYWLHWIRQAPGQRLEWMGYINPRNDYTEYNQNFKDRVTITRDTSASTAYMELSSLRSEDTAVYYCARRDITTFYWGQGTTLTVSS VL: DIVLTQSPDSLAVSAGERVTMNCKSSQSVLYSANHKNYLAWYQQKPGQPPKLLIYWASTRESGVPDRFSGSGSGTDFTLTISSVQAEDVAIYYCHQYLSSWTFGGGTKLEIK	33.5
humanized LL2 L1 + H9 (antibody, V domains shown, Human IgG1 frameworks; also called H9L1) VH: QVQLVQSGAEVKKPGASVKVSCKASGYTFTSYWLHWVRQAPGQRLEWIGYINPRNDYTEYNQNFKDRVTITADTSASTAYMELSSLRSEDTAVYYCARRDITTFYWGQGTTLTVSS VL: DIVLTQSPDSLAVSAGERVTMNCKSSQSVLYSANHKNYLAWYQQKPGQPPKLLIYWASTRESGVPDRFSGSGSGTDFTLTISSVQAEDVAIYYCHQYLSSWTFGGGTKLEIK	34.5
humanized LL2 L2 + H12 (antibody, V domains shown, Human IgG1 frameworks) VH: QVQLQQSGAEVKKPGASVKMSCKASGYTFTSYWLHWVRQAPGQRLEWMGYINPRNDYTEYNQNFKDRVTITADTSASTAYMELSSLRSEDTAVYYCARRDITTFYWGQGTTLTVSS VL: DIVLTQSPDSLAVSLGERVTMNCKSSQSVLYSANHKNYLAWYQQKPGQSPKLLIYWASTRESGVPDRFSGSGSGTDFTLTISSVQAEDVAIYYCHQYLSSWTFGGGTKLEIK	31.7
humanized LL2 L1 + H12 (antibody, V domains shown, Human IgG1 frameworks; also called H12L1; VL1-VH12) VH: QVQLQQSGAEVKKPGASVKMSCKASGYTFTSYWLHWVRQAPGQRLEWMGYINPRNDYTEYNQNFKDRVTITADTSASTAYMELSSLRSEDTAVYYCARRDITTFYWGQGTTLTVSS VL: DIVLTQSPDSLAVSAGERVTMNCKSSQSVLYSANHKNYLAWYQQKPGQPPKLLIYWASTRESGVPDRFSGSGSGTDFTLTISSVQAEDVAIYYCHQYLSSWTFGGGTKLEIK	39.2
humanized LL2 L2 + H1 (antibody, V domains shown, Human IgG1 frameworks; also called H1L2) VH: QVQLVESGAEVKKPGASVKMSCKASGYTFTSYWLHWIRQAPGQRLEWIGYINPRNDYTKYSQKFQGRATITADKSASTAYMELSSLRSEDTAVYYCARRDITTFYWGQGTTLTVSS VL: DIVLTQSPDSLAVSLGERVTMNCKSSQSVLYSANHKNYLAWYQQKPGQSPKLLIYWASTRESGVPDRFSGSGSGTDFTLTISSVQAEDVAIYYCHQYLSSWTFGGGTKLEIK	40
